# tested-system: IFN-α4a (human, UniProt P05014 24-189)
# assay-overview: cell-based or functional assay
observation-type: IC50 (pM), ISRE assay
Numbers only; they are read as pM.

binder: IFWM3405 (antibody, IgG1, V domains shown) VH: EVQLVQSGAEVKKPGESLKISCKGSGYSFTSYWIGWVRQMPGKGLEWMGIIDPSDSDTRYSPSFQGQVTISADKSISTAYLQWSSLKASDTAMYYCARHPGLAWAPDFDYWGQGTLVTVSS VL: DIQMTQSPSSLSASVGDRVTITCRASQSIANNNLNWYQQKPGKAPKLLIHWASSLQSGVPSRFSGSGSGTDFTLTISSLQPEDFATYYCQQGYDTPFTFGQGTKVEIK
IC50 (pM), ISRE assay: 86
--
binder: IFWM3332 (antibody, IgG1, V domains shown) VH: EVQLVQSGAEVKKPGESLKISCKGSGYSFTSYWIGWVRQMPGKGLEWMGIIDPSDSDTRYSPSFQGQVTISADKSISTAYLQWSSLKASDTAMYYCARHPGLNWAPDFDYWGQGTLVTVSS VL: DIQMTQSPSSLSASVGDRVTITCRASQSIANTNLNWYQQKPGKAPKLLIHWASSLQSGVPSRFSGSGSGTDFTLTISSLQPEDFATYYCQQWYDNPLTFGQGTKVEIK
IC50 (pM), ISRE assay: 519
--
binder: IFWM3304 (antibody, IgG1, V domains shown) VH: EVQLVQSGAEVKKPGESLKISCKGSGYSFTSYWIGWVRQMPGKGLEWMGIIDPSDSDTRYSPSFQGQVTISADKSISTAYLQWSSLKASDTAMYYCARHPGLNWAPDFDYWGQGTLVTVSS VL: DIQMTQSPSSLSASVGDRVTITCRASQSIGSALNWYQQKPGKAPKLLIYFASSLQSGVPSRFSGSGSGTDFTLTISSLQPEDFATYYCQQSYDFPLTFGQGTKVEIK
IC50 (pM), ISRE assay: 112

// below: IC50 (pM), ISRE assay requested for another binder
Please give the measured IC50 (pM), ISRE assay for this binder: IFWM3400 (antibody, IgG1, V domains shown) VH: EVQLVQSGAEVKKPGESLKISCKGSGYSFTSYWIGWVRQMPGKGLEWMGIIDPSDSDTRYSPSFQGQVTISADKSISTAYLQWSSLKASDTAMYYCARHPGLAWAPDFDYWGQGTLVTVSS VL: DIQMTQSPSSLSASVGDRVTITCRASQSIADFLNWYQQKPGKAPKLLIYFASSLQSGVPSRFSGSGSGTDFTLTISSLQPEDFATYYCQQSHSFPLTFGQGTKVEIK 220
